Assay: yeast display, Sf9 membrane polyspecificity reagent, FACS + sequencing; frameworks hold sequencing errors
Observed property: polyreactivity (PSR sort gate)

Check out these entries, answers already filled in.
{"columns": ["Biopolymer sequence", "Value reported"],
 "data": [
  ["QVQLVESGGGLVQAGGSLRLSCAASGSIFIYYSMGWYRQAPGKERELVAAISWSGGDTYYADSVKGRFTISRDNAKNTVYLQMNSLKPEDTAVYYCAADSVTRPAGDYWGQGTQVTVSS", "low polyreactivity"],
  ["QVQLVESGGGLVQAGGSLRLSCAASGFTFYRYAMGWYRQAPGKERELVAAISWRGTSTYYADSVKGRFTISRDNAKNTVYLQMNSLKPEDTAVYYCAAPRNFGPYTSPRQPLYNYWGQGTQVTVSS", "high polyreactivity"],
  ["QVQLVESGGGLVQAGGSLSLSCAASGRTMYTNAMGWYIQAPGKERELVAVITLSTDGTYYADSVKGRFTISRDNAKNTVYLQMNSLKPEDTAVYYCAIGDPDGDREIWRLYYWGQGTKVTVSS", "low polyreactivity"],
  ["QDQLVESGGGLVQAGGSLRLSCAASGSILRQYAMGWYRQAPGKERELVATITGDGSTNYADSVKGRFTISRDNAKNTVYLQMHSLKPEDTAVYYCAVIGYHYSAISPPSQTRQGYDYWGQGTQVTVSS", "low polyreactivity"]
]}

Could you now look at the following sequence, please?
The recorded polyreactivity (PSR sort gate) for entry "QVQLVESGGGLVQAGGSLRLSCAASGGIFYSYAMGWYRQAPGKERELVAAISGRGGSTYYADSVKGRFTISRDNAKNTVYLQMNSLKPEDTAVYYCNALGSQRYDYWGQGTQVTVSS" equals high polyreactivity

###

Assay: yeast display, Sf9 membrane polyspecificity reagent, FACS + sequencing; frameworks hold sequencing errors
Observed property: polyreactivity (PSR sort gate)

{"columns": ["Biopolymer sequence", "polyreactivity (PSR sort gate)"],
 "data": [
  ["QVQLVESGGGLVQAGGSLRLSCAASGRTLDHYAMGWYRQAPGKERELVAAITSSGGSTYYADSVKGRFTISRDNAKNTVYLQMNSLKPEETAVSYCAADVSSQREWIIEHDYWGQGTQVTVSS", "low polyreactivity"],
  ["QVQLVESGGGLVQAGGSLRLSCAASGSICYGYTMGWYRQAPGKEREFVAAITGSGGSTYYADSVKGRFTISRDNAKNTVYLQMNSLKPEDTAVYYCAARRYVNRRYDYWGQGTQVTVSS", "high polyreactivity"],
  ["QVQLVESGGGLVQAGGSLRLSCAASGSTFGGYVMGWYRQAPGKERELVAAIRRVGRTYYADSVKGRFTISRDNAKNTVYLQMNSLKPEDTAVYYCATSYYLAYRSITPYDYWGQGTQVTVSS", "low polyreactivity"],
  ["QVHLVESGGGLVQAGGSLRLSCAASGSIFVSNAMGWYRQAPGKERELVAAIRGVDSTYYADSVKGRFTISRDNAKNTVYLQMNSLKPEDTAVYYCATPGPGYTRYYYWGQGTQVTVSS", "high polyreactivity"],
  ["QVQLVESGGGLVQAGGSLRLSCAASGSTFSHYTMGWSRQAPGKERELVAAINYGGASTYYADSVKGRFTISRDNAKNTVFLHMNSLKPEDTSVYYCAAANRPSEQDNYWGQGTQVTVSS", "low polyreactivity"],
  ["QVQLVESGGGLVQAGGSLRLSCAASGITFYHYAMGWYRQAPGKERELVATISSRGGTTYYADSVKGRFTISRDNAKNTVYLQMNSLKPEDTAVYYCADRTWIIYPVSKYDSWGQGTQVTVSS", "high polyreactivity"],
  ["QVQLVESGGGLVQAGGSLRLSCAASGITFCSYTMGWYRQAPGKERELVAVISSGGSTNYADSVKGRFTISRDNAKNTVYLQMNSLKPEDTAVYYCAADFRWWYTGFDYWGQGTQVTVSS", "high polyreactivity"],
  ["QVQLVESGGGLVQAGGRLRLSCAASGIIFYVYTMGWSRQAPGKERELVAAISGSGGSTTYADSVKGRFTISRDNAKNTVYLQMNSLKPEDTAVYYCNAKKWFYRWWKFSEFDYWGQGTQVTVSS", "high polyreactivity"],
  ["QVQQQESGGGLVQAGGSLRLSCAASGTIFQLTFMGRYRQAPGKERELVASIDYGGNTNYADSVKGRFTISRDNAKNNVYLQMNSLKPEDTAVYYCAASSDSWTTHPYWGQGTHVTVSS", "low polyreactivity"],
  ["QVQLVESGGGLVQAGGSLRLTCAASGITFLHYAMGWYRQAPGKERELVATISRRGGSTYYADSVKGRFTNSRDNAKYTVYLQLNSLKPEDTAVYYCAADSYYLRHYSAGYYFKRYYWGQGTQVTVSS", "high polyreactivity"]
]}

# input for lookup
polyreactivity (PSR sort gate) for "QVQLVESGGGLVQAGGSLRLSCAASGSIFSYYAMGWYRQAPGKERELVATISSGGSTNYADSVKGRFTISRDNAKNTVYLQMNSLKPEDTAVYYCAATIGHNGFDYWGQGTQVTVSS" is low polyreactivity

###

Assay: yeast display, Sf9 membrane polyspecificity reagent, FACS + sequencing; frameworks hold sequencing errors
Observed property: polyreactivity (PSR sort gate)

Use the examples below as a reference point.
{"columns": ["Biopolymer sequence", "Value reported"],
 "data": [
  ["QVQLVESGGGLVQAGGSLRLSCAASGYIFPGNAMGWYRQAPGKERELVAAISSRGGRTYYADSVKGRFTISRDNAKNTVYLQMNSLKPEDTAVYYCAKGGKVGSTLEYDYWGQGTQVTVSS", "high polyreactivity"],
  ["QVQLVESGGGLVQAGGSLRLSCAASGFTFRWYAMGWYRQAPGKERELVARIRGSGGNTYYADSVKGRFTISRDNAKNTVYLQMNSLKPEDTAVYYCAAMQSPTRSFIYRFDYWGQGTQVTVSS", "high polyreactivity"],
  ["QDQLVESVGGLVQAGGSLRLSCAASGLTFEVYAMGWSRQAPGKDRELVAAISSGGRSTYYADSVKGRFTISRDNAKNTVYLQMNSRKPEDSAVYYCNAVAKLYYWRYDYWGQGTQVTVSS", "low polyreactivity"],
  ["QVQLVESGGGLVQAGGSLRLICAASGRIFITNTMGWYRQAPGKETELVAAISRTGGSTYYADSVKGRFTISRDNAKNTVYLQMNSLKPEDTAVYFCNAVVRGYAQGAGFDYWGQGTQVTVSS", "high polyreactivity"],
  ["QVQLQESGGGLVLAGGSLRLSCSASGNISVYGSMGWYRQAPGKEREFVATIDPGTNTNYADSVKDRFTISRDNAKNTVYLQMNSLKPEDTAVYYCAVEAGSDWLYRYWGQGTKVTVSS", "low polyreactivity"],
  ["QVQLVESGGGLVQAGGSLRLSCAASGSTFGGYVMGWYRQAPGKERELVAAISRSGASTYYADSVKGRFTISRDNAKNTVYLQMNSLKPEDTAVYYCAAYQARGMDYWGQGTQVTVSS", "high polyreactivity"],
  ["QVQLVESGGGLVQAGGSLRLSCAASGFTFSQNAMGWYRQAAGKERELVAAITGDGGSTYYADSVKGRFTISRDNAKNTVFLQMNSLKPEDTAVYYCAADPSPYSAFGIYWFRYDYWGQGTQVTVSS", "low polyreactivity"],
  ["QVQLVESGGGLVQAGGSLRLSCAASGSTFGRNTMGWYRPAPGKERELVASITRSSTSTYYADSVKGRFTISRDNAKNTVYLQMNSLKPEDTAVYYCAARALRTDRSPVGRHEYWGQGTQVTVSS", "low polyreactivity"],
  ["QVQLVESGGGLVQAGRSLRLSCASSGSTFRVYDMGWYRQAPGNERELVASISYSVGSTYYADSVKGRFTISRDNAKNTVYLQMITLKPEDTEVYFCAARPSYQPSSLARYDYWGQGTQVSVSS", "low polyreactivity"],
  ["QVQLVESGGGLVQAGGRLRLTCAASGSIFGTYAMGWYRQAPGKERELVAAINSGDSTYYADSVKGRFTISRDNAKNTVYLQMNSLKPEDTAVYYCAAGRYWPGDYWGQGTQVTVSS", "high polyreactivity"]
]}

Now for another entry.
The recorded polyreactivity (PSR sort gate) for entry "QVQLVESGGGLVQAGGSLRLSCAGSGFTFGIYAMGSDRQAPGKERELVAAISSSGGSTYYADSVKGRFTISRDNAKNTVYLQMNSLKPEDTAVYYCAAVNSRRRYWYDYWGQGTQVTVSS" equals high polyreactivity

###

Test: yeast display, Sf9 membrane polyspecificity reagent, FACS + sequencing; frameworks hold sequencing errors
Observed property: polyreactivity (PSR sort gate)

Example cases with answers are listed next.
{"columns": ["Biopolymer sequence", "polyreactivity (PSR sort gate)"],
 "data": [
  ["QVQLVESGGGLVQAGGSLRLSCAASGFTFKGYAMGWYRQAPGKERELVAAITRGGSTYYADSVKGRFTISRDNAKNTVYLQMNSLKPEDTAVYYCAARGRGHGTTPNDYWGQGTQVTVSS", "high polyreactivity"],
  ["QVQLVESGGGLVQAGGSLRLSCAASGSIRVTNDMGWYRQATGKERELVAAITSIGGSTNYADSVKGRFTISRDNAKNPVYLQMNSLKPEDTAVYYCNVYLGILYKYDYWGQGTQVTVSS", "low polyreactivity"],
  ["QVQLVESGGGLVQAGGSLSLSCAASGLTFVYYVMGWYRQAPGKERELVAAISSGGGTYYADSVKGRFTISRDNAKNTVYLQMNSLKPEDTAVYYCAADLLGWFDFDYWGQGTQVTVSS", "high polyreactivity"],
  ["QVQLVESGAGLVQAGGSLRLSSAASGSIFEPNAMGWYRQAPGKERELVAAITSGGTTYADSVKGRFTISRDNAKNSVYFQMNSLKPEDSAVYYCAAYYIFVYYYPFDYWGQGTQVTVSS", "low polyreactivity"]
]}

Looking up "QVQLVESGGGLVQAGGSLRLSCAASGITFGAYAMGWYRQAPGKEMELVAVITRGADTYYADSVKGRFTISRDNAKNTVYLQMNSLKPEDTAVYDCAAEIDLPYYYGSDDDDYWGQGTQVTVSS" , I found its polyreactivity (PSR sort gate) recorded as high polyreactivity
